Measured S (%), maximum % stimulation by item
Test system: IMGE-5 cells
Assay: IMGE-5 cell proliferation, [3H]-thymidine incorporation
Assay type: cell-based, mice
Details: IMGE cells, thymidine uptake; best fit at saturating concentration
Endpoint: S (%), maximum % stimulation

{"columns": ["Substance", "Endpoint", "Result"],
 "data": [
  ["LEEEEEA [LE5A]", "S (%), maximum % stimulation", "34.7%"],
  ["EEEEEAY [Peptide E5AY]", "S (%), maximum % stimulation", "36.1%"],
  ["Ggly: glycine-extended gastrin17, 18 amino acid non-amidated gastrin, SEQ ID NO:4, residues 55-72 of progastrin (XGPWLEEEEEAYGWMDFG; (1)..(1) pyroglutamate; listed as Homo sapiens)", "S (%), maximum % stimulation", "37.3%"],
  ["EEEEEA [Peptide E5A]", "S (%), maximum % stimulation", "29.1%"],
  ["LEEEEE [LE5]", "S (%), maximum % stimulation", "29.9%"],
  ["LEEEEEAYG [LE5AYG]", "S (%), maximum % stimulation", "45.8%"]
]}

###

Experiment: 1H NMR titration of Ggly fragments with ferric citrate
Type: binding
Conditions: pH 5.3, 278 K, read-out: Apparent Kd for ferric ions from shift of the Glu10 amide resonance

{"columns": ["Residue sequence", "Unit info", "Kd"],
 "data": [
  ["LEEEEEAYG [LE5AYG]", "mM", 7]
]}

###

Measured Kd by item
Assay: Quenching of peptide tryptophan fluorescence by ferric ions (stoichiometry, apparent Kd)
Format: binding
Details: 10 mM sodium acetate pH 4.0, 100 mM NaCl, 0.005% Tween 20; mean ± S.E.; read-out: Kd (μM), apparent dissociation constant for ferric ions
Where no end group is shown, it is not given here. [ ]: non-standard residue; d: D form. pGlu = O=C1CC[C@@H](C(=O)O)N1
Endpoint: Kd (µM)

{"columns": ["Substance", "Readout number"],
 "data": [
  ["GglyE6A: Ggly mutant, Glu6 replaced by Ala, SEQ ID NO:10 ([pGlu]GPWLAEEEEAYGWMDFG; ends and bridges not checked)", 0.23],
  ["GglyE7A: Ggly mutant, Glu7 replaced by Ala, SEQ ID NO:11 ([pGlu]GPWLEAEEEAYGWMDFG; ends and bridges not checked)", 0.2],
  ["Ggly: glycine-extended gastrin17, 18 amino acid non-amidated gastrin, SEQ ID NO:4, residues 55-72 of progastrin (XGPWLEEEEEAYGWMDFG; (1)..(1) pyroglutamate; listed as Homo sapiens)", 0.18]
]}
